experiment: small molecules boosting NK-mediated OVCAR3 lysis – imaging, primary NK cells, calcein-AM imaging, primary screen (AID 1508625); conditions: OVCAR3 lysis by primary NK cells, at 5 µM; measured here: robust Z-score, single-point normalisation;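 note: compound given to NK cells 16 h before adding targets at 1.5 to 1 ratio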;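 for Z-score: more negative robust z means stronger NK killing of tumor cells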
Form field: z-score (one value per entry).

# annotated cases, reported z-score shown
{"columns": ["molecule", "z-score"],
 "data": [
  ["CC1C2CCCN2CCN1Cc1cccc(Oc2ccccc2)c1 (stereo unspecified)", -0.537],
  ["CCCCN(C(=O)c1cnc2n(c1=O)CCS2)c1ccccc1", -1.68],
  ["CC(=O)Nc1ccc(N=Cc2ccc(C)cc2)cc1", -0.8]
]}

Task: State its z-score for this molecule: `CC(=O)Nc1cccc(N=Cc2cc(Cc3ccccc3)cc([N+](=O)[O-])c2O)c1`
Output: -0.698

Task: State its z-score for this molecule: `O=C(CNC(=O)OCc1ccccc1)Oc1cc2oc(=O)c3c(c2cc1Cl)CCC3`
Output: -0.829

Task: State its z-score for this molecule: `COCc1cc(C)[nH]c(=O)c1C(=O)NC12CC3CC(CC(C3)C1)C2`
Output: -1.57

###

Form field: corrected activity, negative = more killing (one value per entry).
assay: small molecules boosting NK-mediated OVCAR3 lysis – imaging, primary NK cells, calcein-AM imaging, primary screen (AID 1508625); settings: OVCAR3 lysis by primary NK cells, at 5 µM;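 note: compound given to NK cells 16 h before adding targets at 1.5 to 1 ratio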
Report the figure in % without appending any unit label.

{"columns": ["compound", "observed_value"],
 "data": [
  ["O=C1CSc2ccc(S(=O)(=O)N3CCOCC3)cc2N1", -4.98],
  ["COc1ccc(NC(=O)c2sc3cc([N+](=O)[O-])ccc3c2Cl)c(OC)c1", -2.66],
  ["O=C(Oc1ccccc1C(=S)N1CCOCC1)c1ccc(Br)cc1", -4.68],
  ["CCC(C)NC(=O)c1ccc2c(=O)n(CCN(CC)CC)c(=S)[nH]c2c1 (stereo not given)", -4.1],
  ["CC(C)(C)c1ccc(C(=O)CC2(O)C(=O)Nc3ccc(Cl)cc32)cc1 (stereo not given)", -2.41]
]}

Task: State its corrected activity, negative = more killing for this compound: CCOC(=O)C1=C(C)Nc2sc(C(=O)c3ccc(C)cc3)c(N)c2C1c1ccc(C(=O)OC)cc1 (stereo not given)
Output: -4.02

Task: State its corrected activity, negative = more killing for this compound: `COc1ccc(S(=O)(=O)N2CCN(C(=O)COc3ccc4ccccc4c3)CC2)cc1`
Output: -2.15

Task: State its corrected activity, negative = more killing for this compound: `COC(=O)CCC(=O)NNC(=O)c1ccc(Br)cc1`
Output: -3.77

Task: State its corrected activity, negative = more killing for this compound: `COc1ccccc1CNC(=O)CCS(=O)(=O)Cc1ccccc1C`
Output: -4.37

Task: State its corrected activity, negative = more killing for this compound: CSc1nnc2c(n1)OC(c1ccc(C(=O)O)cc1)Nc1ccccc1-2 (stereo not given)
Output: -1.74

###

Form field: corrected activity, negative = more killing (one value per entry).
assay: small molecules boosting NK-mediated OVCAR3 lysis – imaging, primary NK cells, calcein-AM imaging, primary screen (AID 1508625); conditions: OVCAR3 lysis by primary NK cells, at 5 µM;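 note: compound given to NK cells 16 h before adding targets at 1.5 to 1 ratio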
Report the figure in % without appending any unit label.

{"columns": ["molecule", "readout_unit", "observed_value"],
 "data": [
  ["CCOc1ccc2cc(C3=NN(C(=O)CCC(=O)O)C(c4ccc(Br)cc4)C3)c(Cl)nc2c1 (stereo not drawn)", "%", -2.89],
  ["c1cncc(CNC23CC4CC(CC(C4)C2)C3)c1", "%", -3.27],
  ["CCc1ccc(N2C(=O)CSC2c2ccc(Br)cc2)cc1 (stereo not drawn)", "%", -3.8],
  ["O=c1c2c(nc3c(-c4ccc(Cl)cc4)c(Cc4ccccc4)[nH]n13)CCC2", "%", -3.87],
  ["CC1CCC(NC2CCCc3c2[nH]c2ccc([N+](=O)[O-])cc32)CC1 (stereo not drawn)", "%", 3.89],
  ["O=C(Nc1ccccc1C(=O)Nc1ccc(Br)cn1)c1ccccc1", "%", -6.2]
]}

Task: State its corrected activity, negative = more killing for this molecule: COc1cc(OC)c(CN2CCN3CCCC3C2C)cc1Br (stereo not drawn)
Output: -2.76

Task: State its corrected activity, negative = more killing for this molecule: `COc1ccccc1CNC(=O)c1sc2ncnc(N3CCOCC3)c2c1C`
Output: -0.847

Task: State its corrected activity, negative = more killing for this molecule: OC(CN1CCN(C2c3ccccc3-c3ccccc32)CC1)Cn1c2ccccc2c2ccccc21 (stereo not drawn)
Output: -8.62

Task: State its corrected activity, negative = more killing for this molecule: `CCN(C(=O)c1cc2c(=O)n3cccc(C)c3nc2s1)c1ccccc1`
Output: -6.23

Task: State its corrected activity, negative = more killing for this molecule: CC(=O)CC(O)(c1ccccc1)C(F)(F)F (stereo not drawn)
Output: 0.173

Task: State its corrected activity, negative = more killing for this molecule: `Cc1cc(C)nc(N=C(N)Nc2cccc(F)c2)n1`
Output: 0.14

Task: State its corrected activity, negative = more killing for this molecule: `CCOC(=O)c1ccc(CN(Cc2ccc(F)cc2)S(=O)(=O)c2cccc(Cl)c2)cc1`
Output: -6.34

Task: State its corrected activity, negative = more killing for this molecule: `Cc1ccc(OCCNC2CCCC2)c(C)c1`
Output: 0.166

Task: State its corrected activity, negative = more killing for this molecule: `CCC(CC)NC(=O)c1cccc(OC)c1OC`
Output: -0.109

Task: State its corrected activity, negative = more killing for this molecule: Cc1ccc(N2C(=O)C(N3C(=O)c4cccc([N+](=O)[O-])c4C3=O)C2c2ccc(F)cc2)cc1F (stereo not drawn)
Output: -2.91

Task: State its corrected activity, negative = more killing for this molecule: `C=CCn1c(-c2ccc3[nH]c(C)c(C)c3c2)n[nH]c1=S`
Output: -6.13

Task: State its corrected activity, negative = more killing for this molecule: `O=C(COc1ccccc1F)N1CCc2ccccc2C1`
Output: -4.1

Task: State its corrected activity, negative = more killing for this molecule: CC1=NN(C(=O)c2ccc(C(N)=O)cc2)C(O)(C(F)(F)F)C1 (stereo not drawn)
Output: -1.91

Task: State its corrected activity, negative = more killing for this molecule: `CN1C(=O)c2ccccc2Sc2ccc(C(=O)O)cc21`
Output: -8.06

Task: State its corrected activity, negative = more killing for this molecule: `O=C(Nc1ccc(Br)cc1)c1ccc(Cl)c(S(=O)(=O)N2CCCCCC2)c1`
Output: -9.39

Task: State its corrected activity, negative = more killing for this molecule: CCC(Sc1nc(C)cc(C)n1)C(=O)Nc1nnc(C)s1 (stereo not drawn)
Output: -9.03

Task: State its corrected activity, negative = more killing for this molecule: COc1cc(NC(=O)C(C)Oc2cccc(Cl)c2)cc(OC)c1 (stereo not drawn)
Output: -3.89

###

assay: small molecules boosting NK-mediated OVCAR3 lysis – imaging, primary NK cells, calcein-AM imaging, primary screen (AID 1508625); details: OVCAR3 lysis by primary NK cells, at 5 µM;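 note: compound given to NK cells 16 h before adding targets at 1.5 to 1 ratio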
Form field: corrected activity, negative = more killing (one value per entry).
Report the figure in % without appending any unit label.

# annotated cases, reported corrected activity, negative = more killing shown
{"columns": ["molecule", "observed_value"],
 "data": [
  ["Brc1ccc(-c2noc(CSc3ccccc3)n2)cc1", -0.336],
  ["Cc1[nH]c2ccccc2c(=O)c1CN(C)Cc1ccccc1", 0.566],
  ["CC1=C(C(=O)Nc2cccc(Cl)c2)C(c2cccc(Cl)c2)NC(=O)N1 (stereo unspecified)", -1.94]
]}

Task: State its corrected activity, negative = more killing for this molecule: `COc1cc2c(cc1NCc1ccccn1)oc1ccccc12`
Output: -2.51

Task: State its corrected activity, negative = more killing for this molecule: `Cn1c2ccccc2n2c(SCC(=O)O)nnc12`
Output: -4.88

Task: State its corrected activity, negative = more killing for this molecule: `CCOc1ccc(OCC(=O)NC(C)C)cc1`
Output: -5.07

###

assay: small molecules boosting NK-mediated OVCAR3 lysis – imaging, primary NK cells, calcein-AM imaging, primary screen (AID 1508625); conditions: OVCAR3 lysis by primary NK cells, at 5 µM;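 note: compound given to NK cells 16 h before adding targets at 1.5 to 1 ratio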
quantity_name: corrected activity, negative = more killing (%)
Report the figure in % without appending any unit label.

# annotated cases, reported corrected activity, negative = more killing shown
{"columns": ["compound", "readout_unit", "observed_value"],
 "data": [
  ["CCOc1ccc(-n2c(SCC(=O)Nc3ccc(C)cc3)nc3c([nH]c4ccccc43)c2=O)cc1", "%", -5.11],
  ["O=C(c1nn2c(C(F)(F)F)cc(-c3ccco3)nc2c1Br)N1CCCCC1", "%", -4.92],
  ["Cc1ccc(C=Cc2nc3ccccc3[nH]2)cc1", "%", 2.68],
  ["CCOC(=O)c1c(NC(=O)c2cc([N+](=O)[O-])ccc2N2CCCCCC2)sc2c1CCCC2", "%", -2.4],
  ["COC(=O)c1sc(N2C(=O)C(=O)C(=C(O)c3ccc(Cl)cc3)C2c2ccc(C)cc2)nc1C (stereo not drawn)", "%", -3.82]
]}

Task: State its corrected activity, negative = more killing for this compound: `CC(C)OC(=O)CN1CCCN(S(=O)(=O)c2ccc(F)cc2)CC1`
Output: -3.05

Task: State its corrected activity, negative = more killing for this compound: `Brc1cccc(-c2nnc3sc(CN4CCOCC4)cn23)c1`
Output: -6.12

Task: State its corrected activity, negative = more killing for this compound: `C=CCNC(=O)c1ccc2snnc2c1`
Output: -1.6

Task: State its corrected activity, negative = more killing for this compound: COc1ccc(OC(C)C(=O)Nc2ccc(Br)cc2)cc1 (stereo not drawn)
Output: -7.07

Task: State its corrected activity, negative = more killing for this compound: `Cc1cc(Br)ccc1NC(=O)CCNC(=O)Cn1cnc2sc3c(c2c1=O)CCCC3`
Output: -0.281

Task: State its corrected activity, negative = more killing for this compound: `CCOC(=O)c1ccc(NC(=O)C(=O)N2CCCC2)cc1`
Output: -5.89
